Provide the recorded EC50 for the entries that follow.
Molecular target: human wild type-CFTR (Homo sapiens)
Assay: Cell-based YFP assay
Parameters: expressed in transfected cells; host or cells: CHO-K1 (Chinese hamster ovary)
Settings: CHO-K1 cells expressing human wild type-CFTR and YFP-H148Q/I152L; forskolin 20 μM = 100% activity; read-out: Cell-based YFP Assay (EC50) Concentration Range

Record excerpt, results attached:
compound: COc1ccc(-c2ccnc3cc(C(=O)N4CC(C)NC(C)C4)nn23)cc1OC (stereo not drawn)
assay system: human wild type-CFTR (Homo sapiens)
EC50: ≥ 2 µM
//
compound: COc1ccc(-c2ccnc3cc(C(=O)Nc4ccc(OCCN5CCOCC5)cc4)nn23)cc1OC
assay system: human wild type-CFTR (Homo sapiens)
EC50: < 0.2 µM
//
compound: COc1ccc(-c2ccnc3cc(C(=O)N4C[C@H](C)N(C(=O)c5ccccc5)[C@@H](C)C4)nn23)cc1OC
assay system: human wild type-CFTR (Homo sapiens)
EC50: < 0.2 µM
//
compound: COC(=O)c1ccc(NC(=O)c2cc3nccc(-c4ccc5c(c4)OCCO5)n3n2)cc1
assay system: human wild type-CFTR (Homo sapiens)
EC50: ≥ 2 µM
//
compound: COc1ccc(-c2ccnc3cc(C(=O)N4CC[C@@H](NC(=O)OC(C)(C)C)C4)nn23)cc1OC
assay system: human wild type-CFTR (Homo sapiens)
EC50: 0.2 to 2 µM

Can you give me EC50 for all of these, one by one?
1. COc1ccc(-c2ccnc3cc(C(=O)Nc4ccc(C(=O)N5CCN(C(=O)OC(C)(C)C)CC5)cc4)nn23)cc1OC
2. COc1ccc(-c2ccnc3cc(C(=O)Nc4ccc(C(=O)NCCN5CCCC5)cc4)nn23)cc1OC
3. COc1ccc(-c2ccnc3cc(C(=O)Nc4ccc(N5CC=CCC5)cc4)nn23)cc1OC
4. COc1ccc(-c2ccnc3cc(C(=O)NC45CC(C(=O)N6CCNCC6)(C4)C5)nn23)cc1OC
5. COc1ccc(-c2ccnc3cc(C(=O)Nc4ccc(C(=O)O)c(Cl)c4)nn23)cc1OC
6. COc1ccc(-c2ccnc3cc(C(=O)N[C@H]4CC[C@@H](C(=O)N5CCN(C)CC5)CC4)nn23)cc1OC
7. COc1ccc(-c2ccnc3cc(C(=O)N(C)c4ccc(C(=O)O)cc4)nn23)cc1OC
8. COc1ccc(-c2ccnc3cc(C(=O)N4C[C@H](C)N(C(=O)c5ccccc5)C[C@H]4C)nn23)cc1OC

["< 0.2 µM", "≥ 2 µM", "< 0.2 µM", "≥ 2 µM", "≥ 2 µM", "≥ 2 µM", "≥ 2 µM", "< 0.2 µM"]

Can you give me EC50 for all of these, one by one?
1. COCCOCOC(=O)[C@H]1CC[C@H](NC(=O)c2cc3nccc(-c4ccc(OC)c(OC)c4)n3n2)CC1
2. COc1ccc(-c2ccnc3cc(C(=O)NC45CC(C(=O)OCCCN6CCOCC6)(C4)C5)nn23)cc1OC

1: 0.2 to 2 µM; 2: 0.2 to 2 µM

====

Biological target: UniProtKB P13569
Experiment: Cell-based YFP assay
Set-up: expressed in transfected cells; host or cells: CHO-K1 (Chinese hamster ovary)
Conditions: CHO-K1 cells expressing human wild type-CFTR and YFP-H148Q/I152L; forskolin 20 μM = 100% activity; read-out: Cell-based YFP Assay (EC50) Concentration Range
Provide the recorded EC50 for the entries that follow.

Record excerpt, results attached:
compound: COC(=O)c1ccc(NC(=O)c2cc3nccc(-c4cccc(OC)c4)n3n2)cc1 [Compound 25]
EC50: ≥ 2000 nM

compound: COc1ccc(-c2ccnc3cc(C(=O)Nc4ccc5c(c4)OCO5)nn23)cc1OC [Compound 310]
EC50: < 200 nM

compound: COc1ccc(-c2ccnc3cc(C(=O)N4CCN(C(=O)c5ncccn5)[C@@H](C)C4)nn23)cc1OC [Compound 383]
EC50: 200 to 2000 nM

compound: COc1ccc(-c2ccnc3cc(C(=O)N[C@H]4CC[C@@H](O)CC4)nn23)cc1OC [Compound 102]
EC50: ≥ 2000 nM

compound: COc1ccc(-c2ccnc3cc(C(=O)Nc4ccc(C(=O)N[C@H](C(=O)N5CCN(C)CC5)C(C)C)cc4)nn23)cc1OC [Compound 146]
EC50: < 200 nM

compound: CCOc1ccc(NC(=O)c2cc3nccc(-c4ccc(OC)c(F)c4)n3n2)cc1 [Compound 308]
EC50: 200 to 2000 nM

compound: COc1ccc(NC(=O)c2cc3nccc(-c4ccc(OC)c(OC)c4)n3n2)cc1 [Compound 6]
EC50: < 200 nM

Switching to the query record.
Can you look up the measured EC50 of COc1ccc(-c2ccnc3cc(C(=O)Nc4ccc(C(=O)N5CCN(C)CC5)c(C)c4)nn23)cc1OC [Compound 215] for me?
≥ 2000 nM

====

Molecular target: human wild type-CFTR (Homo sapiens, UniProt P13569)
Sequence (P13569 whole entry): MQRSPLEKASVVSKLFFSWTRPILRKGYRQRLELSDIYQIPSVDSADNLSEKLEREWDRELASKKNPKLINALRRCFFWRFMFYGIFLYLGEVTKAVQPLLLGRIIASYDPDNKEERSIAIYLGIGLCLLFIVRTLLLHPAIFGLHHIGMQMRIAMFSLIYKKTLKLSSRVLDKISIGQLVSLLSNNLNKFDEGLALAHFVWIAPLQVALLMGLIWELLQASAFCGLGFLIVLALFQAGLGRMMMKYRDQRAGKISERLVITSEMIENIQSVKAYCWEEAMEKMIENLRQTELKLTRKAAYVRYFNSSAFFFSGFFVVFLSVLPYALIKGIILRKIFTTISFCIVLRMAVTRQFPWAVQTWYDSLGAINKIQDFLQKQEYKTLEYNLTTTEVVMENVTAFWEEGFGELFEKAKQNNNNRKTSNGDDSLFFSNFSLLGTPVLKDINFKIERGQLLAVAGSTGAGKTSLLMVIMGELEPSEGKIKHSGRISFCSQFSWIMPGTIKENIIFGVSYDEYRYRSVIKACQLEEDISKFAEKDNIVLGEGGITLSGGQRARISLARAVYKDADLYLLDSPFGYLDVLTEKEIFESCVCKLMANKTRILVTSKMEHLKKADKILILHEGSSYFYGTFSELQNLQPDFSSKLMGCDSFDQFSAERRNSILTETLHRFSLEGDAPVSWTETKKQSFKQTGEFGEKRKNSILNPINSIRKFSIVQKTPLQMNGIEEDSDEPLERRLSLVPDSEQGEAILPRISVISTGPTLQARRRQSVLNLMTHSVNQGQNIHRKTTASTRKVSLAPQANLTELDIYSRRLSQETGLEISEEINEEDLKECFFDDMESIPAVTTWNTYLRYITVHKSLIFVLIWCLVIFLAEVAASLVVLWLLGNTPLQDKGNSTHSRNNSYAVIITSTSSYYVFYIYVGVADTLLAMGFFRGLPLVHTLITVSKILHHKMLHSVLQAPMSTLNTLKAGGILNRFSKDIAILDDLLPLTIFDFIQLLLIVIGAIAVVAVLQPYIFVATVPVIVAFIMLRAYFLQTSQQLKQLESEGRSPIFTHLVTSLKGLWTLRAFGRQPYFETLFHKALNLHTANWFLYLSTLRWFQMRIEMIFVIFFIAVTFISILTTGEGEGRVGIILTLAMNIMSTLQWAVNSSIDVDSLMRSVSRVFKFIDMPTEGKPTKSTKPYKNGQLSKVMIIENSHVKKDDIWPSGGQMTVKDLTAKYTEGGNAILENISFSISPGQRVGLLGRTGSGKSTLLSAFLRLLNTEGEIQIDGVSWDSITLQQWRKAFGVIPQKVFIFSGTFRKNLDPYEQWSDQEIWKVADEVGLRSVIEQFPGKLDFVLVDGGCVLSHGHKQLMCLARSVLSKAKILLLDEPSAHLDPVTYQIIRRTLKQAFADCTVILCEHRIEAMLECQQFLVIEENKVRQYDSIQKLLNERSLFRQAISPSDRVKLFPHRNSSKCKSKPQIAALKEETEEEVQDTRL
Experiment: Cell-based YFP assay
Parameters: expressed in transfected cells; host or cells: CHO-K1 (Chinese hamster ovary)
Settings: CHO-K1 cells expressing human wild type-CFTR and YFP-H148Q/I152L; forskolin 20 μM = 100% activity; read-out: Cell-based YFP Assay (EC50) Concentration Range
reported metric: EC50

Record excerpt, results attached:
sample smiles: CCOc1ccc(NC(=O)c2cc3nccc(-c4ccc(OC)c([N+](=O)[O-])c4)n3n2)cc1
EC50: ≥ 2000 nM
//
sample smiles: CCCCOC(=O)c1ccc(NC(=O)c2cc3nccc(-c4ccc(OC)c(OC)c4)n3n2)cc1
EC50: 200 to 2000 nM
//
sample smiles: COc1ccc(-c2ccnc3cc(C(=O)N4CCc5cc(C(=O)N6CCN(C)CC6)ccc54)nn23)cc1OC
EC50: 200 to 2000 nM
//
sample smiles: COc1ccc(-c2ccnc3cc(C(=O)NC4(C(=O)O)CC4)nn23)cc1OC
EC50: ≥ 2000 nM

Can you give me EC50 for all of these, one by one?
1. COc1ccc(-c2ccnc3cc(C(=O)N[C@H]4CC[C@H](N5CCOCC5)CC4)nn23)cc1OC
2. COc1ccc(-c2ccnc3cc(C(=O)N4CC[C@@H](O)C4)nn23)cc1OC
3. COc1ccc(-c2ccnc3cc(C(=O)NC45CCC(C(=O)O)(CC4)CC5)nn23)cc1OC

≥ 2000 nM
≥ 2000 nM
200 to 2000 nM

Can you look up the measured EC50 of COc1ccc(-c2ccnc3cc(C(=O)Nc4ccc(C(=O)NCCN5CCCCC5)cc4)nn23)cc1OC for me?
200 to 2000 nM

====

Biological target: human wild type-CFTR (Homo sapiens)
Assay: Cell-based YFP assay
Parameters: expressed in transfected cells; host or cells: CHO-K1 (Chinese hamster ovary)
Settings: CHO-K1 cells expressing human wild type-CFTR and YFP-H148Q/I152L; forskolin 20 μM = 100% activity; read-out: Cell-based YFP Assay (EC50) Concentration Range
Provide the recorded EC50 for the entries that follow.

Record excerpt, results attached:
sample smiles: COc1ccc(-c2ccnc3cc(C(=O)Nc4ccc(NC(=O)OC(C)(C)C)cc4)nn23)cc1OC
EC50: < 0.2 µM
--
sample smiles: COc1ccc(-c2ccnc3cc(C(=O)N4CCN(C(=O)c5ccccn5)[C@@H](C)C4)nn23)cc1OC
EC50: < 0.2 µM
--
sample smiles: COC(=O)c1ccc2c(c1)CCCN2C(=O)c1cc2nccc(-c3ccc(OC)c(OC)c3)n2n1
EC50: < 0.2 µM

Can you look up the measured EC50 of COc1ccc(-c2ccnc3cc(C(=O)N[C@]45CC[C@](N6CCOCC6)(CC4)CC5)nn23)cc1OC for me?
0.2 to 2 µM

====

Test: Phosphate-buffered saline (PBS) solubility of compounds
Assay type: physicochemical
Conditions: aqueous buffer, thermodynamic from solid, PBS pH 7.5, 0.5 mg/mL, vortexed 90 min, filtered, LC-MS/MS, read-out: Solubility Range
reported metric: solubility at 90 min

Record excerpt, results attached:
compound: COC(=O)c1ccc(NC(=O)c2cc3nccc(-c4ccc(OC)c(OC)c4)n3n2)nc1 [Compound 31]
solubility at 90 min: < 0.1 µg/mL
//
compound: COC(=O)[C@H](CC(C)C)NC(=O)c1ccc(NC(=O)c2cc3nccc(-c4ccc(OC)c(OC)c4)n3n2)cc1 [Compound 57]
solubility at 90 min: < 0.1 µg/mL
//
compound: COc1ccc(-c2ccnc3cc(C(=O)N4CCN(C(=O)c5ccccc5)[C@@H](C)C4)nn23)cc1OC [Compound 210]
solubility at 90 min: 0.1 to 10 µg/mL

Can you give me solubility at 90 min for all of these, one by one?
1. COc1ccc(-c2ccnc3cc(C(=O)N[C@H]4CC[C@H](O)CC4)nn23)cc1OC [Compound 69]
2. COc1ccc(-c2ccnc3cc(C(=O)Nc4ccc(C(=O)N5CCN(C)CC5)cc4)nn23)cc1OC [Compound 97]
3. COC(=O)[C@H](C)NC(=O)c1ccc(NC(=O)c2cc3nccc(-c4ccc(OC)c(OC)c4)n3n2)cc1 [Compound 42]
4. COc1ccc(-c2ccnc3cc(C(=O)Nc4ccc(NC(=O)[C@H](C)N)cc4)nn23)cc1OC [Compound 284]

["> 10 µg/mL", "0.1 to 10 µg/mL", "< 0.1 µg/mL", "0.1 to 10 µg/mL"]
